Measured PT, listed per entry.
- Species on record: Rattus norvegicus
- TEST PROTOCOL: Open TG-GATES - Regimen: Daily Repeat
- Type: toxicity, organism-based, Sprague-Dawley
- Parameters: regimen Daily Repeat, gender Male, age 6 weeks
- ASSAY CONDITIONS: in vivo, po, 0 mg/kg, […], tissue Blood, route gavage, dose level Control, time 14 day
PROPERTY NAME: PT (s)

[[record]]
molecule = "O=NN(CCCl)C(=O)NC1CCCCC1"
property_name = "PT"
measurement_unit = "s"
endpoint_result = 11.4

[[record]]
molecule = "OCCOCCN1CCN(C(c2ccccc2)c2ccc(Cl)cc2)CC1 (centres undefined) [HYDROXYZINE]"
property_name = "PT"
measurement_unit = "s"
endpoint_result = 15.5

[[record]]
molecule = "CC[C@H]1[C@@H]2C[C@H]3[C@@H]4N(C)c5ccccc5[C@]45C[C@@H]([C@@H]2[C@H]5O)N3[C@@H]1O"
property_name = "PT"
measurement_unit = "s"
endpoint_result = 11.4

[[record]]
molecule = "CCC1(c2ccccc2)C(=O)NC(=O)NC1=O"
property_name = "PT"
measurement_unit = "s"
endpoint_result = 11.6


* * *

In this section, each of the molecules is paired with its reported Ca.
- Species: Rattus norvegicus
- TEST PROTOCOL: Open TG-GATES - Regimen: Daily Repeat
- Assay type: toxicity, organism-based, Sprague-Dawley
- Design: regimen Daily Repeat, gender Male, age 6 weeks
- ASSAY CONDITIONS: in vivo, po, 0 mg/kg, […], tissue Plasma, route gavage, dose level Control, time 14 day
PROPERTY NAME: Ca (mg/dL)

[[record]]
molecule = "CCC1(c2ccccc2)C(=O)NC(=O)NC1=O [PHENOBARBITAL]"
property_name = "Ca"
endpoint_result = 10.6

[[record]]
molecule = "CC[C@H]1[C@@H]2C[C@H]3[C@@H]4N(C)c5ccccc5[C@]45C[C@@H]([C@@H]2[C@H]5O)N3[C@@H]1O [AJMALINE]"
property_name = "Ca"
endpoint_result = 10.9

[[record]]
molecule = "CC(C)N(CCC(C(N)=O)(c1ccccc1)c1ccccn1)C(C)C (stereo not given) [DISOPYRAMIDE]"
property_name = "Ca"
endpoint_result = 10.3

[[record]]
molecule = "CCCCc1oc2ccccc2c1C(=O)c1cc(I)c(OCCN(CC)CC)c(I)c1 [AMIODARONE]"
property_name = "Ca"
endpoint_result = 10.7

[[record]]
molecule = "CN(C)C(=N)N=C(N)N [METFORMIN]"
property_name = "Ca"
endpoint_result = 11


* * *

- Species on record: Rattus norvegicus
- TEST PROTOCOL: Open TG-GATES - Regimen: Single
- Type: toxicity, organism-based, Sprague-Dawley
- Set-up: regimen Single, gender Male, age 6 weeks
- ASSAY CONDITIONS: in vivo, po, 0 mg/kg, 9 h, tissue Blood, route gavage, dose level Control
Recorded Ret, one value per entry.
PROPERTY NAME: Ret (%)

[[record]]
molecule = "CC1=C(CC(=O)O)c2cc(F)ccc2/C1=C\\c1ccc([S+](C)[O-])cc1 (stereo not given)"
property_name = "Ret"
endpoint_result = 7.7

[[record]]
molecule = "CC(C)N(CCC(C(N)=O)(c1ccccc1)c1ccccn1)C(C)C (stereo not given) [DISOPYRAMIDE]"
property_name = "Ret"
endpoint_result = 7.5

[[record]]
molecule = "CC[C@H]1[C@@H]2C[C@H]3[C@@H]4N(C)c5ccccc5[C@]45C[C@@H]([C@@H]2[C@H]5O)N3[C@@H]1O [AJMALINE]"
property_name = "Ret"
endpoint_result = 9.6

[[record]]
molecule = "OCCOCCN1CCN(C(c2ccccc2)c2ccc(Cl)cc2)CC1 (stereo not given) [HYDROXYZINE]"
property_name = "Ret"
endpoint_result = 8.2

[[record]]
molecule = "CN(C)CCC=C1c2ccccc2COc2ccccc21 [DOXEPIN]"
property_name = "Ret"
endpoint_result = 8.9

[[record]]
molecule = "CN(C)C(=N)N=C(N)N [METFORMIN]"
property_name = "Ret"
endpoint_result = 10

[[record]]
molecule = "ClC(Cl)(Cl)Cl [CARBON TETRACHLORIDE]"
property_name = "Ret"
endpoint_result = 9.7

[[record]]
molecule = "CCC1(c2ccccc2)C(=O)NC(=O)NC1=O [PHENOBARBITAL]"
property_name = "Ret"
endpoint_result = 7.7

[[record]]
molecule = "O=NN(CCCl)C(=O)NC1CCCCC1 [LOMUSTINE]"
property_name = "Ret"
endpoint_result = 8.8

[[record]]
molecule = "CCc1oc2ccccc2c1C(=O)c1cc(Br)c(O)c(Br)c1 [BENZBROMARONE]"
property_name = "Ret"
endpoint_result = 7.4


* * *

- Organism: Rattus norvegicus
- TEST PROTOCOL: Open TG-GATES - Regimen: Daily Repeat
- Format: toxicity, organism-based, Sprague-Dawley
- Design: regimen Daily Repeat, gender Male, age 6 weeks
- ASSAY CONDITIONS: in vivo, po, 0 mg/kg, […], tissue Blood, route gavage, dose level Control, time 28 day
Checkbox rule: WBC lower than 100 x10_2/uL = yes (1); WBC not lower than 100 x10_2/uL = no (0).

[[record]]
compound = "CN(C)CCC=C1c2ccccc2COc2ccccc21 [DOXEPIN]"
category_label = "yes (1)"

[[record]]
compound = "CCCCc1oc2ccccc2c1C(=O)c1cc(I)c(OCCN(CC)CC)c(I)c1"
category_label = "yes (1)"

[[record]]
compound = "CCC1(c2ccccc2)C(=O)NC(=O)NC1=O"
category_label = "no (0)"

[[record]]
compound = "CN(C)C(=N)N=C(N)N"
category_label = "no (0)"

[[record]]
compound = "O=NN(CCCl)C(=O)NC1CCCCC1"
category_label = "no (0)"

[[record]]
compound = "CC(C)N(CCC(C(N)=O)(c1ccccc1)c1ccccn1)C(C)C (stereo unspecified) [DISOPYRAMIDE]"
category_label = "no (0)"

[[record]]
compound = "CC[C@H]1[C@@H]2C[C@H]3[C@@H]4N(C)c5ccccc5[C@]45C[C@@H]([C@@H]2[C@H]5O)N3[C@@H]1O"
category_label = "no (0)"

[[record]]
compound = "CCc1oc2ccccc2c1C(=O)c1cc(Br)c(O)c(Br)c1"
category_label = "no (0)"

[[record]]
compound = "CC1=C(CC(=O)O)c2cc(F)ccc2/C1=C\\c1ccc([S+](C)[O-])cc1 (stereo unspecified)"
category_label = "no (0)"

[[record]]
compound = "ClC(Cl)(Cl)Cl [CARBON TETRACHLORIDE]"
category_label = "no (0)"


* * *

In this section, each of the molecules is paired with its reported Eos.
- Organism: Rattus norvegicus
- TEST PROTOCOL: Open TG-GATES - Regimen: Daily Repeat
- Type: toxicity, organism-based, Sprague-Dawley
- Set-up: regimen Daily Repeat, gender Male, age 6 weeks
- ASSAY CONDITIONS: in vivo, po, 0 mg/kg, […], tissue Blood, route gavage, dose level Control, time 7 day
PROPERTY NAME: Eos

[[record]]
molecule = "CN(C)C(=N)N=C(N)N [METFORMIN]"
endpoint_result = "1.2%"

[[record]]
molecule = "CN(C)CCC=C1c2ccccc2COc2ccccc21 [DOXEPIN]"
endpoint_result = "1%"

[[record]]
molecule = "CCC1(c2ccccc2)C(=O)NC(=O)NC1=O [PHENOBARBITAL]"
endpoint_result = "0.8%"

[[record]]
molecule = "CCCCc1oc2ccccc2c1C(=O)c1cc(I)c(OCCN(CC)CC)c(I)c1 [AMIODARONE]"
endpoint_result = "1%"

[[record]]
molecule = "CC[C@H]1[C@@H]2C[C@H]3[C@@H]4N(C)c5ccccc5[C@]45C[C@@H]([C@@H]2[C@H]5O)N3[C@@H]1O [AJMALINE]"
endpoint_result = "1%"

[[record]]
molecule = "ClC(Cl)(Cl)Cl [CARBON TETRACHLORIDE]"
endpoint_result = "1%"

[[record]]
molecule = "CC(C)N(CCC(C(N)=O)(c1ccccc1)c1ccccn1)C(C)C (stereo unspecified) [DISOPYRAMIDE]"
endpoint_result = "0.8%"

[[record]]
molecule = "OCCOCCN1CCN(C(c2ccccc2)c2ccc(Cl)cc2)CC1 (stereo unspecified) [HYDROXYZINE]"
endpoint_result = "1%"

[[record]]
molecule = "CC1=C(CC(=O)O)c2cc(F)ccc2/C1=C\\c1ccc([S+](C)[O-])cc1 (stereo unspecified)"
endpoint_result = "1%"

[[record]]
molecule = "O=NN(CCCl)C(=O)NC1CCCCC1 [LOMUSTINE]"
endpoint_result = "1%"

[[record]]
molecule = "CCc1oc2ccccc2c1C(=O)c1cc(Br)c(O)c(Br)c1 [BENZBROMARONE]"
endpoint_result = "1%"


* * *

- Species on record: Rattus norvegicus
- TEST PROTOCOL: Open TG-GATES - Regimen: Daily Repeat
- Type: toxicity, organism-based, Sprague-Dawley
- Design: regimen Daily Repeat, gender Male, age 6 weeks
- ASSAY CONDITIONS: in vivo, po, 0 mg/kg, […], tissue Blood, route gavage, dose level Control, time 7 day
# label = Y if Ht >= 40% else N

[[record]]
molecule = "CC1=C(CC(=O)O)c2cc(F)ccc2/C1=C\\c1ccc([S+](C)[O-])cc1 (stereo unspecified)"
category_label = "Y"

[[record]]
molecule = "CN(C)CCC=C1c2ccccc2COc2ccccc21 [DOXEPIN]"
category_label = "N"

[[record]]
molecule = "CCC1(c2ccccc2)C(=O)NC(=O)NC1=O"
category_label = "Y"

[[record]]
molecule = "CCc1oc2ccccc2c1C(=O)c1cc(Br)c(O)c(Br)c1"
category_label = "Y"

